# credit: patent US20240336909A1

Target: T1, cynomolgus EpCAM protein (cynomolgus monkey)
T1 construct: biotinylated in the Octet assays; also called cy EpCAM; cynomolgus monkey EpCAM
T1 sequence (Q1WER1 24-265): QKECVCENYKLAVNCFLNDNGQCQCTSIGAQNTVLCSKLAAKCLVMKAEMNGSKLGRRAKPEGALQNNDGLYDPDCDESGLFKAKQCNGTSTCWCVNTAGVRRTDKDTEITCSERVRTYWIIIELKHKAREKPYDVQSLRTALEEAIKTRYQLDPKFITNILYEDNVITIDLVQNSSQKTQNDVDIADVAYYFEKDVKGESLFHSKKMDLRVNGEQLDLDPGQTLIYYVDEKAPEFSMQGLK
Assay: colorimetric ELISA
Source text: Llamas were immunized with purified EpCAM protein expressed in Expi293 cells. A phage display library for expression of heavy variable antibody domains was constructed from circulating B cells. See van der Linden, de Geus, Stok, Bos,van Wassenaar, Verrips, and Frenken. 2000. J Immunol Methods 240:185-195. […]
I'd be grateful if you could share measured ELISA absorbance for these entries.
Reply with just the number (in absorbance).

QUERY: Return the recorded ELISA absorbance value; entry: Llama anti-EpCAM single domain antibody EPL43 (VHH, E. coli periplasmic extract) VHH: QVQLQESGGGLVQTGGSLRLSCAASESISSFIAVGWYRQAPGKERELVAGINRSGFTYYTDSVKGRFSISRDNAKNTVLLQMTSLKPEDTAVYYCNAGGLYFSNAYTQGDYWGQGTQVTVSS
RESULT: 3.8

QUERY: Return the recorded ELISA absorbance value; entry: Llama anti-EpCAM single domain antibody EPL189 (VHH, E. coli periplasmic extract) VHH: QVQLQESGGGLVQPGGSLRLSCAASGRINSINTMGWYRQAPGNQRELVAEITRGGTTNYADSVQGRYAISRDNAKNLVYLQMNSLKPEDTDVYYCNAQTFPTFSRPTGLDYWGQGTQVTVSS
RESULT: 0.9

QUERY: Return the recorded ELISA absorbance value; entry: Llama anti-EpCAM single domain antibody EPL129 (VHH, E. coli periplasmic extract) VHH: QVQLQESGGGLVQAGGSLRLSCAASGFAFGNHWMYWYRQAPGRGRELVASISSGGSTNYVDSVKGRFTISRDNARNTVYLQMYSLRPEDTAVYYCGTSDNWGQGTQVTVSS
RESULT: 3.1

QUERY: Return the recorded ELISA absorbance value; entry: Llama anti-EpCAM single domain antibody EPL145 (VHH, E. coli periplasmic extract) VHH: QVQLQESGGGLVQAGGSLRLSCAASGFIFRAASMGWFRQSPGNERELVATVSSGGFTNYADSVKGRFTISRDNAKNTVYLQMNSLKPEDTAVYFCGATFVRSDGHHTIYGQGTQVTVSS
RESULT: 0.4
